Target: Cytochrome P450 2C9 (Homo sapiens) (UniProt P11712)
Sequence (P11712 whole entry, looked up): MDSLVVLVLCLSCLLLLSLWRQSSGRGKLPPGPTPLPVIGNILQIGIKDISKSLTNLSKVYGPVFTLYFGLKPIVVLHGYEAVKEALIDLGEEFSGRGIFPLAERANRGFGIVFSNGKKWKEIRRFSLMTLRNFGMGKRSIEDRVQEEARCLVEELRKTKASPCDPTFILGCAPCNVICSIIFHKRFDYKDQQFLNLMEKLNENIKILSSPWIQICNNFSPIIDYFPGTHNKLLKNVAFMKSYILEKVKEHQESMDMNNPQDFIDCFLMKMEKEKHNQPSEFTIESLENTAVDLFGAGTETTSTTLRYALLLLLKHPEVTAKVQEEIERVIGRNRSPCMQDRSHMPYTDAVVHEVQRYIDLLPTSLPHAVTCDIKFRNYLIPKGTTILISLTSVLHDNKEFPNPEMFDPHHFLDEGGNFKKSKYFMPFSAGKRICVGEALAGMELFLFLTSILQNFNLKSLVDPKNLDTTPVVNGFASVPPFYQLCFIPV
Test: Cytochrome panel assay with activity outcomes
Conditions: recombinant CYP, pro-luciferin dealkylation, luminescence, p450-cyp2c9; series mostly up to 57.1 µM
Screen size: about 16,000 compounds; about 4,000 (25%) were called active. Another 26% or so got no clear call; they are omitted. Calls follow the shape of the dose curve; as a rule, active = well fitted curve in the direction sought with a large enough effect; inconclusive = small, poorly fitted or top-dose-only effect, or effect the other way; inactive = no such curve, though single readings can be large or run the other way. Not all results are given here.
Respond with a class label; see true (active), false (inactive)

Use the examples below as a reference point.
- compound: "COc1ccc(CNC(=O)C(c2ccc(C)cc2)N(Cc2cccs2)C(=O)c2ccc3c(c2)OCCO3)cc1 (stereo unspecified)"
  assigned-class: "true"
- compound: "COc1cccc(Cn2c(=O)cnc3cnc(OC)nc32)c1"
  assigned-class: "false"
- compound: "O=c1cnc2cnc(Oc3ccccc3)nc2n1Cc1ccc(F)cc1"
  assigned-class: "true"

Any idea what this test logged for O=c1cnc2cnc(Oc3cccc(Cl)c3)nc2n1Cc1ccc(F)cc1 ? true

Now give it for CCc1nc(N2CCC3(CC2)OCCO3)c2nnn(Cc3ccccc3Cl)c2n1 too. true

Now give it for Cc1cccc(C)c1NC(=O)[C@H](C)N too. false

Now give it for O=c1cnc2cnc(Oc3ccccc3)nc2n1CCc1ccccc1 too. true

Now give it for COc1ccc2nc3oc(C(=O)NCc4cccs4)cc3cc2c1 too. false

Now give it for O=C(OC(C(=O)NC1CCCC1)c1ccncc1)C1=Cc2ccccc2OC1 (stereo unspecified) too. true

Now give it for COc1ccc(-n2c(=O)cnc3cnc(Oc4cccc(Cl)c4)nc32)cc1 too. false

Now give it for CCc1ccc(C(C(=O)NCc2ccc(OC)cc2)N(CCOC)C(=O)Cc2cccs2)cc1 (stereo unspecified) too. true

---

Biological target: Cytochrome P450 2C9 (Homo sapiens) (UniProt P11712)
Assay: Cytochrome panel assay with activity outcomes
Details: recombinant CYP, pro-luciferin dealkylation, luminescence, p450-cyp2c9; series mostly up to 57.1 µM
Screen size: about 16,000 compounds; about 4,000 (25%) were called active. Roughly 26% stayed inconclusive and do not appear here. The call rests on the fitted dose curve; in most records, active means well fitted curve in the direction sought with a large enough effect; inconclusive means small, poorly fitted or top-dose-only effect, or effect the other way; inactive means no such curve, though single readings can be large or run the other way. A selection follows.
Respond with a class label; see True for active, False for inactive

- compound: "Cc1ccc(/C=N/NC(=O)c2cccs2)cc1[N+](=O)[O-]"
  assigned-class: "True"
- compound: "COc1ccc(Nc2ncc3c(n2)CC(c2ccc(C)cc2)CC3=O)cc1 (stereo unspecified)"
  assigned-class: "True"
- compound: "COc1cccc(Nc2ncc3nc(C)c(=O)n(C)c3n2)c1"
  assigned-class: "False"
- compound: "COc1cc(/C=N/NC(=O)c2cccs2)ccc1OCc1ccccc1"
  assigned-class: "True"

Any idea what this test logged for COc1cccc(Nc2ncc3nc(C)c(=O)n(C4CC4)c3n2)c1 ? False

Now give it for CCn1c(=O)[nH]c2ccccc21 too. False

---

Molecular target: Cytochrome P450 2C9 (Homo sapiens) (UniProt P11712)
Test: Cytochrome panel assay with activity outcomes
Conditions: recombinant CYP, pro-luciferin dealkylation, luminescence, p450-cyp2c9; series mostly up to 57.1 µM
Procedure: The P450 gene superfamily is involved in the metabolism and clearance of xenobiotics. This assay used various human CYP P450 isozymes to measure the dealkylation of various pro-luciferin substrates to luciferin. The luciferin is then measured by luminescence after the addition of a luciferase detection reagent. […] Inhibitors and some substrates limit the production of luciferin, and decrease measured luminescence. […] 8, Detection, 1 sec, ViewLux luminescent read […]
The campaign covered roughly 16,000 compounds. About 4,000 (25%) were called active. About 26% were inconclusive and are not listed. The call rests on the fitted dose curve; in most records, active means well fitted curve in the direction sought with a large enough effect; inconclusive means small, poorly fitted or top-dose-only effect, or effect the other way; inactive means no such curve, though single readings can be large or run the other way. Only a sample is shown.
Respond with a class label; see Yes for active, No for inactive

Any idea what this test logged for COc1cccc(C2=NOC(C(=O)NCc3ccccc3)C2)c1 (stereo not given) ? No

Now give it for Cc1cc(O)c(C(C)C)cc1N=Cc1ccccc1O too. Yes

Now give it for COCCn1c(=O)c(-c2cccs2)nc2cnc(N3CCNCC3)nc21 too. Yes

Now give it for C=CCSc1nc(Oc2ccccc2)c2sccc2n1 too. Yes

Now give it for CCCC(=O)Nc1ccc(C(=O)NNC(=S)NC(=O)c2cccs2)cc1 too. Yes

---

Molecular target: Cytochrome P450 2C9 (Homo sapiens)
Assay: Cytochrome panel assay with activity outcomes; as to activity, negative = inhibition: % is scaled to controls: 0 for no effect and ±100 for the full control effect
Settings: recombinant CYP, pro-luciferin dealkylation, luminescence, p450-cyp2c9; series mostly up to 57.1 µM
About 4,000 (25%) of roughly 16,000 compounds were called active. Roughly 26% stayed inconclusive and do not appear here. Not all results are given here.
Hi there, I'd appreciate the recorded activity, negative = inhibition for every entry that follows.

Here is how some compounds turned out for activity, negative = inhibition.
- smiles-input: "Cc1ccccc1-c1cc(NCc2cccnc2)ncn1"
  activity, negative = inhibition: "-13% [at 2.29 µM] (inactive)"
- smiles-input: "CN(C)C(=O)c1ccc(-c2nc(Nc3ccccc3)c3ccccc3n2)cc1"
  activity, negative = inhibition: "-13.3% [at 2.29 µM] (inactive)"
- smiles-input: "Cc1ccc2nc(-c3ccc(NC(=O)c4ccc(N)cc4)c(S(=O)(=O)O)c3)sc2c1"
  activity, negative = inhibition: "-3.37% [at 11.4 µM] (inactive)"
- smiles-input: "O=[N+]([O-])/C=C\\c1cc2ccccc2[nH]1"
  activity, negative = inhibition: "11.3% [at 11.4 µM] (inactive)"

Could you tell me activity, negative = inhibition for each of these compounds? They are listed below.
1. c1csc(CNc2nc(-c3ccoc3)nc3ccccc23)c1
2. COc1ccccc1CNc1ncnc2ccc(-c3ccoc3)cc12
3. CN(Cc1ccco1)c1nc(-c2cccnc2)nc2ccccc12

1: -11.2% [at 2.29 µM] (inactive); 2: -19.5% [at 2.29 µM] (inactive); 3: -8.92% [at 2.29 µM] (inactive)

---

Target: Cytochrome P450 2C9 (Homo sapiens) (UniProt P11712)
Assay: Cytochrome panel assay with activity outcomes
Settings: recombinant CYP, pro-luciferin dealkylation, luminescence, p450-cyp2c9; series mostly up to 57.1 µM
The campaign covered roughly 16,000 compounds. About 4,000 (25%) were called active. Roughly 26% stayed inconclusive and do not appear here. The call rests on the fitted dose curve; in most records, active means well fitted curve in the direction sought with a large enough effect; inconclusive means small, poorly fitted or top-dose-only effect, or effect the other way; inactive means no such curve, though single readings can be large or run the other way. The list is a sample of the results.
Respond with a class label; see active, inactive

Use the examples below as a reference point.
- smiles-input: "CCNc1ncc2nc(C)c(=O)n(Cc3ccc(F)cc3)c2n1"
  assigned-class: "inactive"
- smiles-input: "COc1ncc2ncc(=O)n(Cc3ccc(F)cc3)c2n1"
  assigned-class: "inactive"
- smiles-input: "CCNc1ncc2ncc(=O)n(Cc3ccc(F)cc3)c2n1"
  assigned-class: "active"
- smiles-input: "Cc1noc(C)c1COc1cccc(C(=O)OCC(=O)N2CC(=O)Nc3ccccc32)c1"
  assigned-class: "active"
- smiles-input: "Cc1cc(C)n2nc(SCC(=O)N/N=C/c3ccccc3F)nc2n1"
  assigned-class: "inactive"
- smiles-input: "COc1ccc(NC2=NCC(=O)N2Cc2cccs2)cc1"
  assigned-class: "active"

Any idea what this test logged for N#Cc1c(-c2cccs2)nc(SCC(=O)c2cccs2)[nH]c1=O ? active

Now give it for Cc1cccc(NC(=O)CSc2nc(-c3ccccc3)c(C#N)c(=O)[nH]2)c1C too. active

Now give it for N#Cc1cccc(-c2nc3cnc(N4CCOCC4)nc3n(C[C@H]3CCCO3)c2=O)c1 too. inactive

Now give it for COC(=O)c1ccc(Oc2cc(C)nc(-n3nc(C)cc3C)n2)cc1 too. active

Now give it for Cc1nc(S(=O)(=O)N2CCOCC2)c(C#N)c(C)c1Cl too. inactive

Now give it for COc1cccc(Nc2ncc3nc(-c4ccccc4)c(=O)n(Cc4cccs4)c3n2)c1 too. inactive

Now give it for Cc1cc(SCC(=O)c2ccc(Br)cc2)cc(C)[o+]1 too. active

---

Biological target: Cytochrome P450 2C9 (Homo sapiens) (UniProt P11712)
Test: Cytochrome panel assay with activity outcomes
Conditions: recombinant CYP, pro-luciferin dealkylation, luminescence, p450-cyp2c9; series mostly up to 57.1 µM
Screen size: about 16,000 compounds; about 4,000 (25%) were called active. Roughly 26% stayed inconclusive and do not appear here. Calls follow the shape of the dose curve; as a rule, active = well fitted curve in the direction sought with a large enough effect; inconclusive = small, poorly fitted or top-dose-only effect, or effect the other way; inactive = no such curve, though single readings can be large or run the other way. The list is a sample of the results.
Respond with a class label; see active, inactive

Use the examples below as a reference point.
- smiles-input: "Cc1cccc(OCCCC(=O)Nc2ccc(N3CCCCC3)cc2)c1"
  assigned-class: "inactive"
- smiles-input: "CCn1cnc2sc(C(=O)N3CCN(c4ccc(OC)cc4)CC3)c(C)c2c1=O"
  assigned-class: "active"
- smiles-input: "CCCCSc1nnc(-c2ccc(C)cc2)n1C"
  assigned-class: "inactive"
- smiles-input: "CC(=O)c1cccc(NC(=O)Oc2ccccc2)c1"
  assigned-class: "inactive"
- smiles-input: "Fc1cc2nc(-c3ccncc3)[nH]c2cc1F"
  assigned-class: "active"

Any idea what this test logged for COC(=O)CCC(=O)Nc1cccc(C(=O)Nc2cccc(Cl)c2)c1 ? active

Now give it for CCCCSc1ccc2nc(-c3ccc(C#N)cc3)cn2c1 too. active
